Attribution: the supplement of paper PMC10899765

# Test system: MCF10A
# Experimental protocol: 5+ nucleoli phenotype percent effect (relative to siNT 0% and siKIF11 100%); higher = more cells with five or more nucleoli
# Measurement parameters: 20 nM; 72 h

Construct sequence | Readout unit | 5+ nucleoli phenotype percent effect
GUGUGGCCGGCAGGCGGGUGG [hsa-miR-7108-5p] | % | 6.78
GUUCCACACUGACACUGCAGAAGU [hsa-miR-3692-3p] | % | 6.05
UUAAUGCUAAUCGUGAUAGGGGU [hsa-miR-155-5p] | % | -38.5
ACCCCUCGUUUCUUCCCCCAG [hsa-miR-6795-3p] | % | 14.8
CGGGGCGGCAGGGGCCUC [hsa-miR-3196] | % | -24.6
CUGGGAGGUGGAUGUUUACUUC [hsa-miR-30b-3p] | % | -27.8
CUGGCGGCUGUGUCUUCACAG [hsa-miR-6770-3p] | % | -40.2
AGCCUGGAAGCUGGAGCCUGCAGU [hsa-miR-1254] | % | -6.84
CUGUAUGCCCUCACCGCUCA [hsa-miR-675-3p] | % | -14.5
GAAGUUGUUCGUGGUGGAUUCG [hsa-miR-382-5p] | % | -18.5
UCUAUACAGACCCUGGCUUUUC [hsa-miR-1284] | % | 31.3
ACUCAAAAGAUGGCGGCACUUU [hsa-miR-371b-5p] | % | 19.5
ACCAGCCUGUGUCCACCUCCAG [hsa-miR-6849-3p] | % | -31
